Quick list: pIC50 per entry.
Test system: HAP1 MTAP-intact
ASSAY_REMARKS: SDMA in-cell western assay, HAP1 MTAP-intact cell line
Assay type: cell-based
CONDITION_DESCRIPTION: Homo sapiens
pIC50: −log10 of the molar value.
PROPERTY_NAME: pIC50

INSERT INTO results (molecule, result) VALUES
  ('Cc1ncoc1COc1ccc2c(c1)CCN(C[C@@H](O)CNC(=O)c1ccc(OC3CCOCC3)cc1)C2', '5.00 to 6.00'),
  ('O=C(NC[C@H](O)CN1CCc2c(ccc(OCc3cnco3)c2Cl)C1)c1cc(NC2COC2)nc(N2CCCCC2)n1', '≤ 5.00'),
  ('O=C(NC[C@H](O)CN1CCc2c(ccc(OCc3cnco3)c2Br)C1)c1ccnc(NC2CCC2)c1', '≤ 5.00'),
  ('O=C(NC[C@H](O)CN1CCc2cc(OCc3cnco3)ccc2C1)c1ccnc(NC2CCN(C(=O)C3CC3)CC2)c1', '≤ 5.00'),
  ('O=C(NC[C@H](O)CN1CCc2c(ccc(OCc3cnco3)c2I)C1)c1ccnc(NC2CCC2)c1', '≤ 5.00'),
  ('Cn1nccc1COc1ccc2c(c1Cl)CCN(C[C@@H](O)CNC(=O)c1ccnc(NC3CCCC3)c1)C2', '≤ 5.00'),
  ('Cc1ncoc1COc1ccc2c(c1)CCN(C[C@@H](O)CNC(=O)c1cc(NC3CCC3)nc(N3CCCCC3)n1)C2', '> 6.00'),
  ('CCN(C)c1cc(C(=O)NC[C@H](O)CN2CCc3c(ccc(OCc4cnco4)c3Cl)C2)cc(NC2CCC2)n1', '≤ 5.00'),
  ('Cc1ncoc1COc1ccc2c(c1C)CCN(C[C@@H](O)CNC(=O)c1cc(NC3CCC3)nc(N3CCN(C(C)C)CC3)c1)C2', '≤ 5.00'),
  ('CC(=O)N1CC(Nc2cc(C(=O)NC[C@H](O)CN3CCc4c(ccc(OCc5ocnc5C)c4C)C3)nc(C(C)C)n2)C1', '≤ 5.00'),
  ('CC(=O)N1CCC(Nc2ccnc(C(=O)NC[C@H](O)CN3CCc4c(ccc(OCc5cnco5)c4C)C3)c2)CC1', '≤ 5.00'),
  ('COCCN(C)c1nc(NC2COC2)cc(C(=O)NC[C@H](O)CN2CCc3c(ccc(OCc4ocnc4C)c3C)C2)n1', '≤ 5.00'),
  ('Cc1ncoc1COc1ccc2c(c1C)CCN(C[C@@H](O)CNC(=O)c1cc(NC3COC3)nc(N3CCN(C(=O)C(C)C)CC3)n1)C2', '≤ 5.00'),
  ('Cc1c(OCc2cnco2)ccc2c1CCN(C[C@@H](O)CNC(=O)c1cc(NC3CCC3)ncn1)C2', '≤ 5.00'),
  ('CC(=O)N1CCC(Nc2cc(C(=O)NC[C@H](O)CN3CCc4cc(OCc5ocnc5C)ccc4C3)cc(N(C)C)n2)CC1', '5.00 to 6.00'),
  ('CC(=O)N1CC(Nc2cc(C(=O)NC[C@H](O)CN3CCc4c(ccc(OCc5cnco5)c4Cl)C3)nc(N3CCOCC3)n2)C1', '≤ 5.00'),
  ('CC(=O)N1CC[C@H](Nc2cc(C(=O)NC[C@H](O)CN3CCc4cc(OCc5ocnc5C)ccc4C3)ncn2)C[C@H]1C (mixture of isomers)', '5.00 to 6.00'),
  ('CC(C)(C)N1CCN(c2nc(NC3COC3)cc(C(=O)NC[C@H](O)CN3CCc4cc(OCc5cnco5)ccc4C3)n2)CC1', '≤ 5.00'),
  ('CCCN(C)c1nc(NC2COC2)cc(C(=O)NC[C@H](O)CN2CCc3c(ccc(OCc4ocnc4C)c3C)C2)n1', '≤ 5.00'),
  ('CC(=O)N1CCC(Nc2cc(C(=O)NC[C@H](O)CN3CCc4cc(OCc5ocnc5C)c(F)cc4C3)ccn2)CC1', '≤ 5.00'),
  ('Cc1ncoc1COc1ccc2c(c1C)CCN(C[C@@H](O)CNC(=O)c1cccc(NC3CCC3)c1)C2', '≤ 5.00'),
  ('O=C(NC[C@H](O)CN1CCc2cc(OCc3cnco3)ccc2C1)c1ccc(OC2CCN(Cc3ccncc3)CC2)cc1', '5.00 to 6.00'),
  ('CC(=O)N1CCN(c2nc(NC3COC3)cc(C(=O)NC[C@H](O)CN3CCc4c(ccc(OCc5ocnc5C)c4C)C3)n2)CC1', '≤ 5.00'),
  ('Cc1ncoc1COc1ccc2c(c1C)CCN(C[C@@H](O)CNC(=O)c1cc(NC3CCC3)nc(N3CCOCC3)c1)C2', '≤ 5.00'),
  ('CC(C)(C)N1CCN(c2cc(C(=O)NC[C@H](O)CN3CCc4c(ccc(OCc5cnco5)c4Cl)C3)cc(NC3CCC3)n2)CC1', '≤ 5.00'),
  ('O=C(NC[C@H](O)CN1CCc2c(ccc(OCc3cnco3)c2Cl)C1)c1cc(NC2CCC2)ncc1F', '≤ 5.00'),
  ('O=C(NC[C@H](O)CN1CCc2cc(OCc3cnco3)ccc2C1)c1ccnc(NC2CN(C(=O)C3CC3)C2)c1', '5.00 to 6.00');
